These measurements were taken from ChEMBL document CHEMBL5058577.

Known Population Pyknosed Nuclei (%) of a selection of compounds
Test system: Fibroblast
Assay: Multiplex assay against human fibroblast
Assay type: toxicity, cell-based
Conditions: 12 h, 1 µM, compound concentration 1 uM, replicate 2
Field format: number, assumed %, no unit text.

Guide cases for Population Pyknosed Nuclei (%), answers given:
compound="COc1ccc2[nH]c(I)c(CCNC(C)=O)c2c1 [IODOMELATONIN]" units_symbol=% measured=15
compound=COc1cc2nc(N3CCN(C(=O)COc4c(OC)cccc4C(C)C)CC3)nc(N)c2cc1OC.Cl.Cl units_symbol=% measured=18
compound="Cc1cc(NC(=O)NCCN2CCC(O)(Cc3ccccc3)CC2)c2ccccc2n1 [PALOSURAN]" units_symbol=% measured=28

# input for lookup
What does the record list as Population Pyknosed Nuclei (%) for C[C@H](NC(=O)CNC(=O)c1cccc(Cl)c1)c1ccccc1 ?
18

====

System: HEK-293T
Experiment: Multiplex assay against HEK293T
Type: toxicity, cell-based
Conditions: human, 24 h, 1 µM, compound concentration 1 uM, replicate 2
Known Population Mitotic Cells (%) of a selection of molecules
Field format: number, assumed %, no unit text.

Guide cases for Population Mitotic Cells (%), answers given:
molecule=N[C@](CC1c2ccccc2Oc2ccccc21)(C(=O)O)[C@H]1C[C@@H]1C(=O)O property="Population Mitotic Cells (%)" measured=61
molecule=COc1ccc2[nH]c(I)c(CCNC(C)=O)c2c1 property="Population Mitotic Cells (%)" measured=55
molecule="O=C(O)CCC/C=C\\CC1C(O)CC(O)C1/C=C/C(O)COc1cccc(Cl)c1 (stereo not drawn)" property="Population Mitotic Cells (%)" measured=65
molecule=S=C(NCCCc1c[nH]cn1)NCCCN(Cc1ccc(Cl)c(Cl)c1)c1ccc(Br)cn1 property="Population Mitotic Cells (%)" measured=58
molecule=Cc1cc(O)c(-c2ccc([C@@H](C)CN(C)C)cc2)c2c1[nH]c(=O)c1sccc12 property="Population Mitotic Cells (%)" measured=31

Value wanted: Population Mitotic Cells (%) (HEK-293T) of entry CN1CCN2c3ccccc3Cc3ccccc3C2C1.Cl (stereo not drawn) [MIANSERIN HYDROCHLORIDE]
73

Value wanted: Population Mitotic Cells (%) (HEK-293T) of entry Nc1nc(-c2ccco2)c2cnn(Cc3ccccc3F)c2n1
71

Value wanted: Population Mitotic Cells (%) (HEK-293T) of entry CN1C[C@H](C(=O)N[C@]2(C)O[C@@]3(O)[C@@H]4CCCN4C(=O)[C@H](Cc4ccccc4)N3C2=O)C[C@@H]2c3cccc4[nH]cc(c34)C[C@H]21.CS(=O)(=O)O [DIHYDROERGOTAMINE MESYLATE]
48

Value wanted: Population Mitotic Cells (%) (HEK-293T) of entry COc1cc(OC2CCN(C(C)=O)CC2)ccc1C(=O)N1CCC(N2C(=O)OCc3ccccc32)CC1
51

Value wanted: Population Mitotic Cells (%) (HEK-293T) of entry Cc1cc(-c2ccc3c(c2)CC[C@H]3N2CC3(CCN(C(=O)Cc4cn5cc(C)sc5n4)CC3)C2)ncn1
54

Value wanted: Population Mitotic Cells (%) (HEK-293T) of entry O=c1nc2[nH]c3ccccc3nc-2c(=O)[nH]1
66

Value wanted: Population Mitotic Cells (%) (HEK-293T) of entry Cl.Cl.OCCOCCN1CCN(C(c2ccccc2)c2ccc(Cl)cc2)CC1 (stereo not drawn) [HYDROXYZINE HYDROCHLORIDE]
56

====

Tested on: U2OS
Test: Multiplex assay against U2OS
Assay type: toxicity, cell-based
Details: human, 12 h, 1 µM, compound concentration 1 uM, replicate 1
property: Population Pyknosed Nuclei (%)
Answer as a quantity: numeral, then unit.

Guide cases for Population Pyknosed Nuclei (%), answers given:
molecule=O=C(Nc1cc(-c2ccccc2)nn1-c1ccccc1F)c1ccc([N+](=O)[O-])cc1 measured=8%
molecule="CN1C[C@H](C(=O)N[C@]2(C)O[C@@]3(O)[C@@H]4CCCN4C(=O)[C@H](Cc4ccccc4)N3C2=O)C[C@@H]2c3cccc4[nH]cc(c34)C[C@H]21.CS(=O)(=O)O [DIHYDROERGOTAMINE MESYLATE]" measured=10%

What does the record list as Population Pyknosed Nuclei (%) for COc1cc(Nc2ncc3c(n2)-c2ccc(Cl)cc2C(c2c(F)cccc2OC)=NC3)ccc1C(=O)O ?
10%

====

Known Population Fragmented Nuclei (%) of a selection of compounds
Tested on: Fibroblast
Assay: Multiplex assay against human fibroblast
Type: toxicity, cell-based
Conditions: 24 h, 10 µM, compound concentration 10 uM, replicate 2
Field format: number, assumed %, no unit text.

compound="COCCCN1CCC(NC(=O)c2cc(Cl)c(N)c3c2OCC3)CC1 [PRUCALOPRIDE]" measured=24
compound=CC(C)C[C@H](CO)Nc1nc(S[C@@H](C)c2ccccc2)nc2nc(N)sc12 measured=42
compound=O=C(Nc1cc(-c2ccccc2)nn1-c1ccccc1F)c1ccc([N+](=O)[O-])cc1 measured=28

# input for lookup
What does the record list as Population Fragmented Nuclei (%) for O=C(NCCNCC(O)COc1ccc(O)cc1)N1CCOCC1.O=C(NCCNCC(O)COc1ccc(O)cc1)N1CCOCC1.O=C(O)/C=C/C(=O)O (centres undefined) [XAMOTEROL FUMARATE] ?
34

====

System: Fibroblast
Assay: Multiplex assay against human fibroblast
Type: toxicity, cell-based
Settings: 24 h, 10 µM, compound concentration 10 uM, replicate 1
Non-standard residues stand in square brackets, D forms with d. Residues, ends and D or L forms follow the SMILES beside them.
Known Total Cell Count of a selection of molecules

What does the record list as Total Cell Count for COc1cc2nc(N3CCN(C(=O)COc4c(OC)cccc4C(C)C)CC3)nc(N)c2cc1OC.Cl.Cl ?
344

What does the record list as Total Cell Count for CN1CCC(C(=O)c2cccc(NC(=O)c3c(F)cc(F)cc3F)n2)CC1 ?
258

What does the record list as Total Cell Count for COc1ccc2[nH]c(I)c(CCNC(C)=O)c2c1 ?
143

What does the record list as Total Cell Count for O=C(NCCNCC(O)COc1ccc(O)cc1)N1CCOCC1.O=C(NCCNCC(O)COc1ccc(O)cc1)N1CCOCC1.O=C(O)/C=C/C(=O)O (stereo not drawn) [XAMOTEROL FUMARATE] ?
135

What does the record list as Total Cell Count for CC(C)C[C@@H]1NC(=O)[C@@H](C(C)C)NC(=O)[C@@H]2CCCN2C(=O)[C@@H](CC(=O)O)NC(=O)[C@@H](Cc2c[nH]c3ccccc23)NC1=O [BQ-123] (cyclo(L[dW][dD]P[dV])) ?
123

What does the record list as Total Cell Count for Cc1ccc(OCC(O)C(C)NC(C)C)c2c1CCC2.Cl (stereo not drawn) ?
151

What does the record list as Total Cell Count for CC(C)C[C@H](CO)Nc1nc(S[C@@H](C)c2ccccc2)nc2nc(N)sc12 ?
168

What does the record list as Total Cell Count for Cc1c(Cc2ccc3ccccc3n2)c2cc(F)ccc2n1CC(=O)O ?
150

====

Tested on: HEK-293T
Test: Multiplex assay against HEK293T
Format: toxicity, cell-based
Conditions: human, 12 h, 10 µM, compound concentration 10 uM, replicate 1
property: Population Pyknosed Nuclei (%)
Field format: number, assumed %, no unit text.

Guide cases for Population Pyknosed Nuclei (%), answers given:
compound=COCCn1c(C)c(C)s/c1=N\C(=O)C1C(C)(C)C1(C)C tested_on=HEK-293T measured=13
compound="O=C(O)CCC/C=C\\CC1C(O)CC(O)C1/C=C/C(O)COc1cccc(Cl)c1 (stereo not drawn)" tested_on=HEK-293T measured=14
compound=O=c1nc2[nH]c3ccccc3nc-2c(=O)[nH]1 tested_on=HEK-293T measured=18
compound=Cc1cc(-c2ccc3c(c2)CC[C@H]3N2CC3(CCN(C(=O)Cc4cn5cc(C)sc5n4)CC3)C2)ncn1 tested_on=HEK-293T measured=14
compound=COc1ccc2[nH]c(I)c(CCNC(C)=O)c2c1 tested_on=HEK-293T measured=10
compound=CN1CCC(C(=O)c2cccc(NC(=O)c3c(F)cc(F)cc3F)n2)CC1 tested_on=HEK-293T measured=12

# input for lookup
What does the record list as Population Pyknosed Nuclei (%) for N[C@](CC1c2ccccc2Oc2ccccc21)(C(=O)O)[C@H]1C[C@@H]1C(=O)O ?
12

====

Known Population Tubulin-Different-Phenotype (%) of a selection of molecules
Tested on: HEK-293T
Test: Multiplex assay against HEK293T
Format: toxicity, cell-based
Details: human, 48 h, 1 µM, compound concentration 1 uM, replicate 1
Field format: number, assumed %, no unit text.

molecule=OCCCNc1cc(-c2ccnc(Nc3cccc(Cl)c3)n2)ccn1 measured=68
molecule="O=C(NCCNCC(O)COc1ccc(O)cc1)N1CCOCC1.O=C(NCCNCC(O)COc1ccc(O)cc1)N1CCOCC1.O=C(O)/C=C/C(=O)O (stereo not drawn) [XAMOTEROL FUMARATE]" measured=9

Value wanted: Population Tubulin-Different-Phenotype (%) (HEK-293T) of entry COc1cc(Nc2ncc3c(n2)-c2ccc(Cl)cc2C(c2c(F)cccc2OC)=NC3)ccc1C(=O)O
17

Value wanted: Population Tubulin-Different-Phenotype (%) (HEK-293T) of entry Cc1nn(C)c2nc(NNC(=O)Nc3cc(Cl)nc(Cl)c3)cc(C(C)C)c12
16

Value wanted: Population Tubulin-Different-Phenotype (%) (HEK-293T) of entry COc1cc2nc(N3CCN(C(=O)COc4c(OC)cccc4C(C)C)CC3)nc(N)c2cc1OC.Cl.Cl
11

Value wanted: Population Tubulin-Different-Phenotype (%) (HEK-293T) of entry COc1ccc2c(c1OCc1ccccc1)C[C@@H](C(=O)O)N(C(=O)C(c1ccccc1)c1ccccc1)C2
11

Value wanted: Population Tubulin-Different-Phenotype (%) (HEK-293T) of entry O=C(O)CCC/C=C\CC1C(O)CC(O)C1/C=C/C(O)COc1cccc(Cl)c1 (stereo not drawn)
15

Value wanted: Population Tubulin-Different-Phenotype (%) (HEK-293T) of entry CN1CCN(c2ccc(Nc3c4ccccc4nc4ccccc34)cc2)CC1.Cl.Cl.O
16
